Origin of measurements: the supplement of paper PMC3334620

# Test System: Cin5 (UniProt P40917)
# Sequence: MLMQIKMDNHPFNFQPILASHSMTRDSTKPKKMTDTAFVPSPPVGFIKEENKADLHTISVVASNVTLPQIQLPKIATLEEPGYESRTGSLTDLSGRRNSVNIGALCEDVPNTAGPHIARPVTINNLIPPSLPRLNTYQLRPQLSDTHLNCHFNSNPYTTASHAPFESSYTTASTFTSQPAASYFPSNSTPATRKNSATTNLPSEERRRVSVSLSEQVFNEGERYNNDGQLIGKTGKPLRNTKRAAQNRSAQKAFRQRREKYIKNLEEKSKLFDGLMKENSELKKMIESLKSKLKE
# Assay Overview: PBM E-score (8-mer binding enrichment) (E-score (-0.5 to 0.5)); higher = stronger / more preferred TF binding
# Study Conditions: protein concentration: 100 nM; construct: GST-full length
The full ranking holds about 33,000 sequences; the median of “E-score (-0.5 to 0.5)” is about -0.0059, and the highest 2% start at about 0.26. Many of the other results were omitted from the sample, so the highest values are more common in it than they were.
Classify by measured PBM E-score: t if it is equal to or exceeds 0.1, f if it is smaller.

1. GAAATATC :: t
2. CAATTCCC :: t
3. GAAAAATA :: t
4. AGCTTACG :: t
5. AAAATGGT :: t
6. TAAATATA :: t
7. CCGCGTGC :: f
8. CAAATATA :: t
9. TGCTTACA :: t
10. TCCTTACA :: f
